Measured HC50 of individual entries
Test system: red corpuscles
Assay: Toxicity on red corpuscles (lysis), human
Assay type: cell-based
Conditions: 37° C., 1 hour 30, 90 min, 90 min, read-out: LD 50 (dose which leads to lysis in 50% of the erythrocytes)
Give the value in µM but do not write µM after it.

Examples from the recorded data:
| MOLECULE | HC50 (µM) |
| --- | --- |
| C[C@@H]1[C@H](O)[C@@H](C)/C=C/C=C/C=C/C=C/C=C/C=C/C=C/[C@H](O[C@@H]2O[C@H](C)[C@@H](O)[C@H](NCC3(O)O[C@H](C(=O)O)[C@@H](O)[C@@H]3O)[C@@H]2O)C[C@@H]2O[C@](O)(C[C@@H](O)C[C@@H](O)[C@H](O)CC[C@@H](O)C[C@@H](O)CC(=O)O[C@H]1C)C[C@H](O)[C@H]2C(=O)O (stereo partly drawn) [AmB 17 F, 1-amino-1-deoxy-D-arabinoglucuronyl-AmB] | 200 |
| C[C@@H]1[C@H](O)[C@@H](C)/C=C/C=C/C=C/C=C/C=C/C=C/C=C/[C@H](O[C@@H]2O[C@H](C)[C@@H](O)[C@H](NCC(=O)[C@@H](O)[C@@H]3OC(c4ccccc4)OC[C@H]3O)[C@@H]2O)C[C@@H]2O[C@](O)(C[C@@H](O)C[C@@H](O)[C@H](O)CC[C@@H](O)C[C@@H](O)CC(=O)O[C@H]1C)C[C@H](O)[C@H]2C(=O)O (stereo partly drawn) [AmB 20 F] | 200 |
| CC1OC[C@@H](O)[C@H]([C@H](O)C(=O)CN[C@@H]2[C@H](O)[C@H](O[C@H]3/C=C/C=C/C=C/C=C/C=C/C=C/C=C/[C@H](C)[C@@H](O)[C@@H](C)[C@H](C)OC(=O)C[C@H](O)C[C@H](O)CC[C@@H](O)[C@H](O)C[C@H](O)C[C@]4(O)C[C@H](O)[C@@H](C(=O)O)[C@H](C3)O4)O[C@H](C)[C@H]2O)O1 (stereo partly drawn) [AmB 22 G] | 50 |
| C[C@@H]1[C@H](O)[C@@H](C)/C=C/C=C/C=C/C=C/C=C/C=C/C=C/[C@H](O[C@@H]2O[C@H](C)[C@@H](O)[C@H](NCC(=O)[C@@H](O)[C@@H]3OC(c4ccccc4)OC[C@H]3O)[C@@H]2O)C[C@@H]2O[C@](O)(C[C@@H](O)C[C@@H](O)[C@H](O)CC[C@@H](O)C[C@@H](O)CC(=O)O[C@H]1C)C[C@H](O)[C@H]2C(=O)O (stereo partly drawn) [AmB 20 G] | 80 |
| C[C@@H]1[C@H](O)[C@@H](C)/C=C/C=C/C=C/C=C/C=C/C=C/C=C/[C@H](O[C@@H]2O[C@H](C)[C@@H](O)[C@H](NCC3(O)O[C@H](C(N)=O)[C@@H](O)[C@@H]3O)[C@@H]2O)C[C@@H]2O[C@](O)(C[C@@H](O)C[C@@H](O)[C@H](O)CC[C@@H](O)C[C@@H](O)CC(=O)O[C@H]1C)C[C@H](O)[C@H]2C(=O)O (stereo partly drawn) [AmB 12 G] | 30 |

# context switch: different molecule, same HC50
Per the records, this molecule ( C[C@@H]1[C@H](O)[C@@H](C)/C=C/C=C/C=C/C=C/C=C/C=C/C=C/[C@H](O[C@@H]2O[C@H](C)[C@@H](O)[C@H](NCC3(O)O[C@H](C(=O)O)[C@@H](O)[C@@H]3O)[C@@H]2O)C[C@@H]2O[C@](O)(C[C@@H](O)C[C@@H](O)[C@H](O)CC[C@@H](O)C[C@@H](O)CC(=O)O[C@H]1C)C[C@H](O)[C@H]2C(=O)O (stereo partly drawn) [AmB 17 G, 1-amino-1-deoxy-D-arabinoglucuronyl-AmB] ) has HC50 equal to 50
